# Experimental System: T1, Human B7-H4 with HisFlag tag (huB7-H4-his) (human, UniProt Q7Z7D3 25-258)
# T1 construct: also called HuB7-H4 His protein; huB7-H4-HF
# T1 sequence: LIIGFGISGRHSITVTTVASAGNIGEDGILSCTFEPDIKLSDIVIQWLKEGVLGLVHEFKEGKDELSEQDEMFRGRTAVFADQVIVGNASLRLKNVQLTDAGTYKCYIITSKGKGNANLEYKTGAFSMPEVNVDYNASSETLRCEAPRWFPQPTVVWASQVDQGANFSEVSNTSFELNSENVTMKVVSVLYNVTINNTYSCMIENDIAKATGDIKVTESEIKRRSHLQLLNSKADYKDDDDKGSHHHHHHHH
# Protocol Details: SPR Biacore T200, antibody coupled to CM5 chip, hu-B7-H4-his in flow, 1:1 model
Provide the reported koff of each item.
One number for each entry, in s⁻¹.

humanized anti-B7-H4 antibody hu2F8 (antibody, human IgG1, kappa, V domains shown, human IgG1 / kappa; also called humanized antibody 2F8) VH: EVQLVQSGAEVKKPGASVKVSCKASGYTFTSSWMNWVRQAPGQRLEWMGGIYPNRGNIEYNEKFKGRVTLTVDTSASTAYMELSSLRSEDTAVYYCARDSRFSYWGQGTLVTVSS VL: DIQMTQSPSSLSASVGDRVTITCKASQDVRTAVAWYQQKPGKAPKLLISSTSYRYTGVPSRFSGSGSGTDFTFTISSLQPEDIATYYCQQHYSTPLTFGGGTKVEIKR = 0.000112

Proceed to the following item.
Query: Find the recorded koff belonging to humanized anti-B7-H4 antibody hu2F7 (antibody, human IgG1, kappa, V domains shown, human IgG1 / kappa; also called humanized antibody 2F7) VH: EVQLVESGGGLVQPGGSLRLSCAASGFTFSNYYMSWVRQAPGKGLEWVAYVSSGGGSTYYSDSVKGRFTISRDNAKNTLYLQMSSLRAEDTAVYYCTRESYSQGNYFDYWGQGTTVTVSS VL: EIVMTQSPATLSLSPGERATLSCRASQSISDYLHWYQQKPGQSPRLLIKFASQSISGIPARFSGSGSGTDFTLTISSLEPEDFAVYYCQNGHSFSLTFGQGTKLEIKR and report it.
Reply: 0.000249
